- target.system: Estrogen receptor (Homo sapiens, UniProt P03372)
- Sequence (P03372 whole entry, the tested form may be a part): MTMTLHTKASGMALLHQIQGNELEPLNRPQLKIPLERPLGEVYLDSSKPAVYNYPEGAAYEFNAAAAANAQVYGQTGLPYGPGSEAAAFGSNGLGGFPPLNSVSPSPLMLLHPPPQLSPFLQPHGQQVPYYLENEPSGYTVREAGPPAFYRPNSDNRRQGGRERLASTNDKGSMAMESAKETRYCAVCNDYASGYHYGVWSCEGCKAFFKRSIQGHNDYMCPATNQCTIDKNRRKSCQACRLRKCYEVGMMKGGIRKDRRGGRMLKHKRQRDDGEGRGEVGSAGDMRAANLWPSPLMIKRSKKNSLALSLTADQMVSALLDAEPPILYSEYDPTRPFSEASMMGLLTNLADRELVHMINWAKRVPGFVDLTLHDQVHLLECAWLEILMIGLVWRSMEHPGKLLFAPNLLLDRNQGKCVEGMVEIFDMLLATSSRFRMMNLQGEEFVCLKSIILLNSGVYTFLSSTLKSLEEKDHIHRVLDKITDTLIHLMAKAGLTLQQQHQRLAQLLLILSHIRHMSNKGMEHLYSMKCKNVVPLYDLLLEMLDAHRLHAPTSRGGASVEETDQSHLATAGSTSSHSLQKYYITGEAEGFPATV
- assay.notes: Binding affinity to recombinant human ER-alpha LBD (301 to 553 residues) expressed in Escherichia coli BL21(DE3) after 1 hr by fluorescence polarization assay
Numbered stars: 1 amine (or outer) side, 2 acyl side, 3 side chain; on linkers, the order of the positions; unused ones are H or OH. Bridge positions count the residues as written; N and C are the ends. Square brackets hold non-standard residues; d marks the D form. Peptide text beside a SMILES is read from it. * marks the point of attachment. 5FAM = O=C1OC2(c3ccc(O)cc3Oc3cc(O)ccc32)c2ccc(C(=O)*)cc21; X1 = O=C(CN(CC[*:3])[*:1])[*:2]; Mpa = O=C(O)CCS
property.measured: Kd (nM)
Dear colleague, please return just the value in nM, with no unit written.

- compound: "CC[C@H](C)[C@H](NC(=O)CNC(=O)[C@H](CCCCNC(=O)c1ccc2c(c1)C(=O)OC21c2ccc(O)cc2Oc2cc(O)ccc21)NC(=O)[C@@H](N)CCCNC(=N)N)C(=O)N[C@@H](CC(C)C)C(=O)N[C@@H](CCCNC(=N)N)C(=O)N[C@@H](CCCNC(=N)N)C(=O)N[C@@H](CC(C)C)C(=O)N[C@@H](CC(C)C)C(=O)N[C@@H](CCC(N)=O)C(=O)NCC(=O)N[C@@H](Cc1c[nH]c2ccccc12)C(=O)O (H-RK(5FAM)GILRRLLQGW-OH)"
  unit.text: "nM"
  endpoint.value: 162
- compound: "CC[C@H](C)[C@H](NC(=O)CN1CC[S+]([O-])CCC(=O)N[C@@H](CCCNC(=N)N)C(=O)N[C@@H](CCCCNC(=O)c2ccc3c(c2)C(=O)OC32c3ccc(O)cc3Oc3cc(O)ccc32)C1=O)C(=O)N[C@@H](CC(C)C)C(=O)N[C@@H](CCCNC(=N)N)C(=O)N[C@@H](CCCNC(=N)N)C(=O)N[C@@H](CC(C)C)C(=O)N[C@@H](CC(C)C)C(=O)N[C@@H](CCC(N)=O)C(=O)NCC(=O)N[C@@H](Cc1c[nH]c2ccccc12)C(N)=O (stereo in doubt; form 2)"
  unit.text: "nM"
  endpoint.value: 386
- compound: "CC[C@H](C)[C@H](NC(=O)CN1CC[S+]([O-])CCC(=O)N[C@@H](CCCNC(=N)N)C(=O)N[C@@H](CCCCNC(=O)c2ccc3c(c2)C(=O)OC32c3ccc(O)cc3Oc3cc(O)ccc32)C1=O)C(=O)N[C@@H](CC(C)C)C(=O)N[C@@H](CCCNC(=N)N)C(=O)N[C@@H](CCCNC(=N)N)C(=O)N[C@@H](CC(C)C)C(=O)N[C@@H](CC(C)C)C(=O)N[C@@H](CCC(N)=O)C(=O)NCC(=O)N[C@@H](Cc1c[nH]c2ccccc12)C(N)=O (stereo in doubt; form 1)"
  unit.text: "nM"
  endpoint.value: 183

Attention now shifts to the item below.
The reported Kd value, Estrogen receptor (Homo sapiens, UniProt P03372), for CC[C@H](C)[C@H](NC(=O)CN1CCSCCC(=O)N[C@@H](CCCNC(=N)N)C(=O)N[C@@H](CCCCNC(=O)c2ccc3c(c2)C(=O)OC32c3ccc(O)cc3Oc3cc(O)ccc32)C1=O)C(=O)N[C@@H](CC(C)C)C(=O)N[C@@H](CCCNC(=N)N)C(=O)N[C@@H](CCCNC(=N)N)C(=O)N[C@@H](CC(C)C)C(=O)N[C@@H](CC(C)C)C(=O)N[C@@H](CCC(N)=O)C(=O)NCC(=O)N[C@@H](Cc1c[nH]c2ccccc12)C(N)=O ([Mpa]RK(5FAM)[X1]ILRRLLQGW-NH2; thioether 1-4) reads 212
